Reference for the values: PubChem BioAssay AID1963427

For each entry below, report its IC50 value.
Tested on: 317291-083-R-J1-PDC complex spheroid growth
assay: Anticancer human tumor 317291-083-R-J1-PDC patient-derived soft tissue sarcoma cell line growth inhibition [Asc]
measurement_setup: curve of first compound; second compound 0.316 µM

Answered cases to consult:
| compound | readout_value |
| --- | --- |
| C=CC(=O)N1CCN(c2nc(=O)n(-c3c(C)ccnc3C(C)C)c3nc(-c4c(O)cccc4F)c(F)cc23)C(C)C1 (centres undefined) + Cc1c(S(C)(=O)=O)c(-c2cc(F)cc(N3CCN(c4ccc(NS(=O)(=O)c5ccc(NC(CCN6CCC(C(=O)OCCCP(=O)(O)O)CC6)CSc6ccccc6)c(S(=O)(=O)C(F)(F)F)c5)cc4)CC3)c2)c(-c2ccc(Cl)cc2)n1C(C)C | > 10000 nM |
| NC1CCC(NC2CC2c2ccccc2)CC1 (centres undefined) + Cc1c(S(C)(=O)=O)c(-c2cc(F)cc(N3CCN(c4ccc(NS(=O)(=O)c5ccc(NC(CCN6CCC(C(=O)OCCCP(=O)(O)O)CC6)CSc6ccccc6)c(S(=O)(=O)C(F)(F)F)c5)cc4)CC3)c2)c(-c2ccc(Cl)cc2)n1C(C)C | > 100 nM |
| NC1CCC(NC2CC2c2ccccc2)CC1 (centres undefined) + CNC(C)C(=O)NC1CN(S(=O)(=O)c2cccc(S(=O)(=O)N3CCC4CCC(C(=O)NC(c5ccccc5)c5ccccc5)N4C(=O)C(NC(=O)C(C)NC)C3)c2)CCC2CCC(C(=O)NC(c3ccccc3)c3ccccc3)N2C1=O | < 0.316 nM |

Shifting focus to the compound that follows.
Ask: Fill blank: measured IC50 of the compound CCN1C(C(=O)NC23CCC(C(=O)O)(CC2)CC3)C(c2cccc(Cl)c2F)C2(C(=O)Nc3cc(Cl)ccc32)C12CCCCC2 (centres undefined) + Cc1c(S(C)(=O)=O)c(-c2cc(F)cc(N3CCN(c4ccc(NS(=O)(=O)c5ccc(NC(CCN6CCC(C(=O)OCCCP(=O)(O)O)CC6)CSc6ccccc6)c(S(=O)(=O)C(F)(F)F)c5)cc4)CC3)c2)c(-c2ccc(Cl)cc2)n1C(C)C is ____.
Reply: > 3000 nM

* * *

Would you kindly list viability, T/C for each of these compounds?
Test system: 317291-083-R-J1-PDC complex spheroid growth
assay: Anticancer human tumor 317291-083-R-J1-PDC cell line growth inhibition [Asc];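 also: compound exposure lasted seven days after spheroids formed for three days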;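 as to viability, T/C: 100% = DMSO vehicle control wells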
measurement_setup: second compound 3.16 µM; first compound 0.0316 µM; stronger effect = lower value

Below: 3 compounds and their reported viability, T/C.
| compound | readout_value |
| --- | --- |
| CCN1CCN(Cc2ccc(Nc3ncc(F)c(-c4cc(F)c5nc(C)n(C(C)C)c5c4)n3)nc2)CC1 + Cc1c(S(C)(=O)=O)c(-c2cc(F)cc(N3CCN(c4ccc(NS(=O)(=O)c5ccc(NC(CCN6CCC(C(=O)OCCCP(=O)(O)O)CC6)CSc6ccccc6)c(S(=O)(=O)C(F)(F)F)c5)cc4)CC3)c2)c(-c2ccc(Cl)cc2)n1C(C)C | 73.5% |
| C#Cc1c(F)ccc2cc(O)cc(-c3ncc4c(N5CC6CCC(C5)N6)nc(OCC56CCCN5CC(F)C6)nc4c3F)c12 (centres undefined) + Cc1c(S(C)(=O)=O)c(-c2cc(F)cc(N3CCN(c4ccc(NS(=O)(=O)c5ccc(NC(CCN6CCC(C(=O)OCCCP(=O)(O)O)CC6)CSc6ccccc6)c(S(=O)(=O)C(F)(F)F)c5)cc4)CC3)c2)c(-c2ccc(Cl)cc2)n1C(C)C | 75.5% |
| O=C(c1ccc(F)c(F)c1Nc1ccc(I)cc1F)N1CC(O)([C@@H]2CCCCN2)C1 + Cc1c(S(C)(=O)=O)c(-c2cc(F)cc(N3CCN(c4ccc(NS(=O)(=O)c5ccc(NC(CCN6CCC(C(=O)OCCCP(=O)(O)O)CC6)CSc6ccccc6)c(S(=O)(=O)C(F)(F)F)c5)cc4)CC3)c2)c(-c2ccc(Cl)cc2)n1C(C)C | 73% |

Now consider a different compound.
Ask: Dear colleague, I am looking for the recorded viability, T/C of the following compound: COc1c(OCCCN2CCOCC2)ccc2c3n(c(=NC(=O)c4cnc(N)nc4)nc12)CCN3 + Cc1c(S(C)(=O)=O)c(-c2cc(F)cc(N3CCN(c4ccc(NS(=O)(=O)c5ccc(NC(CCN6CCC(C(=O)OCCCP(=O)(O)O)CC6)CSc6ccccc6)c(S(=O)(=O)C(F)(F)F)c5)cc4)CC3)c2)c(-c2ccc(Cl)cc2)n1C(C)C
Reply: 60.9%
